Catalogue of Intensity of the level of expression in log2 in pyramidal cells (323(−)) readings, one per entry.
- Test system: basal cells and pyramidal cells of the airway epithelium
- Assay text: miRNA expression in sorted basal cells versus pyramidal cells (ciliated + secretory), HTS and Agilent chips
- Design: species or system human
- Run parameters: pyramidal cells (ciliated + secretory)
Readout label: Intensity of the level of expression in log2 in pyramidal cells (323(−))

Substance	Reported value
hsa-let-7c: human miRNA, SEQ ID No. 159 (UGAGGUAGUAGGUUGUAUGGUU; expressed or natural sequence; listed as Homo sapiens)	8.95 log2
hsa-miR-29c: human miRNA, SEQ ID No. 32 (UAGCACCAUUUGAAAUCGGUUA; expressed or natural sequence; listed as Homo sapiens)	8.00 log2
hsa-miR-96: human miRNA, SEQ ID No. 51 (UUUGGCACUAGCACAUUUUUGCU; expressed or natural sequence; listed as Homo sapiens)	5.30 log2
hsa-miR-425: human miRNA, SEQ ID No. 44 (AAUGACACGAUCACUCCCGUUGA; expressed or natural sequence; listed as Homo sapiens)	5.22 log2
hsa-miR-17: human miRNA, SEQ ID No. 11 (CAAAGUGCUUACAGUGCAGGUAG; expressed or natural sequence; listed as Homo sapiens)	4.04 log2

====

- System: human airway epithelial cells (HAECs)
- Assay text: Agilent miRNA chips, miRNA expression at four stages of differentiation of HAECs
- Run parameters: stage FC; Table VI
Readout label: Level of intensity of expression in log2 measured with the Agilent chips, FC

Substance	Reported value
hsa-let-7e: human miRNA, SEQ ID No. 160 (UGAGGUAGGAGGUUGUAUAGUU; expressed or natural sequence; listed as Homo sapiens)	9.34 log2
hsa-miR-92b: human miRNA, SEQ ID No. 49 (UAUUGCACUCGUCCCGGCCUCC; expressed or natural sequence; listed as Homo sapiens)	4.78 log2
hsa-miR-130a: human miRNA, SEQ ID No. 4 (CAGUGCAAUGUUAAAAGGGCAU; expressed or natural sequence; listed as Homo sapiens)	7.95 log2
hsa-miR-125a-5p: human miRNA, SEQ ID No. 3 (UCCCUGAGACCCUUUAACCUGUGA; expressed or natural sequence; listed as Homo sapiens)	8.20 log2
hsa-let-7f: human miRNA, SEQ ID No. 161 (UGAGGUAGUAGAUUGUAUAGUU; expressed or natural sequence; listed as Homo sapiens)	12.01 log2

====

- Test system: human airway epithelial cells (HAECs)
- Assay text: High-throughput sequencing (HTS) of miRNAs at four stages of differentiation of HAECs
- Run parameters: stage FC; Table VI
Flag rule - Level of intensity of expression in log2 measured by high-throughput sequencing, FC less than 10 log2 flags Condition met; the remaining entries get Condition not met.

Substance	Group
hsa-miR-148a: human miRNA, SEQ ID No. 7 (UCAGUGCACUACAGAACUUUGU; expressed or natural sequence; listed as Homo sapiens)	Condition met
hsa-miR-205: human miRNA, SEQ ID No. 20 (UCCUUCAUUCCACCGGAGUCUG; expressed or natural sequence; listed as Homo sapiens)	Condition not met
hsa-miR-378: human miRNA, SEQ ID No. 43 (ACUGGACUUGGAGUCAGAAGG; expressed or natural sequence; listed as Homo sapiens)	Condition not met
hsa-miR-16: human miRNA, SEQ ID No. 10 (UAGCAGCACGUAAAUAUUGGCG; expressed or natural sequence; listed as Homo sapiens)	Condition met
hsa-miR-34a: human miRNA, SEQ ID No. 38 (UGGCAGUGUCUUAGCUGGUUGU; expressed or natural sequence; listed as Homo sapiens)	Condition not met

meta.source: patent US9023821B2
